Would you mind telling me the reported IC50 of each entry?
System: hepatocellular carcinoma cell HEPG2
Test protocol: Tumor cell proliferation inhibitory activity test in vitro (MTT)
Format: cell-based, human
Assay setup: Homo sapiens, HepG2, 72 hours, read-out: IC50 of compounds for tumor cells, Activity, HEPG2

Input: Given the entry COc1ccc(N(C)c2nc(C)nc3ccccc23)cc1 , report its measured IC50.
Output: 0.01 to 10 nM

Input: // query: COc1ccc2c(-c3ccc(-c4ccc(Cl)cc4)o3)cc(=O)oc2c1
Output: > 5000 nM

Input: Same lookup for COc1ccc2c(N(C)c3cc(OC)c(OC)c(OC)c3)cc(=O)oc2c1 , please.
Output: 10 to 100 nM

Input: Try this compound next: COc1ccc2c(c1)CCCN2c1cc(=O)oc2ccccc12
Output: > 5000 nM

Input: Follow-up entry: COc1ccc(N(C)c2cc(=O)oc3cc(OC)ccc23)cc1
Output: 10 to 100 nM

Input: How about O=c1cc(-c2ccc(-c3ccc(Cl)cc3)o2)c2ccccc2o1 ?
Output: > 5000 nM

Input: Again, but for COc1ccc2c(c1)CN(c1cc(=O)oc3ccccc13)CCC2
Output: 100 to 5000 nM

Input: Entry to check: CCN(CC)c1ccc2c(N(C)c3ccc(OC)cc3)cc(=O)oc2c1
Output: 10 to 100 nM

Input: Same question for COc1cc(-c2ccc(-c3cc(=O)oc4ccccc34)o2)cc(OC)c1OC please.
Output: > 5000 nM

Input: Next record, please: COc1ccc(N(C)c2cc(=O)oc3ccccc23)cc1OC(=O)C1CCCC1
Output: 0.01 to 10 nM

###

Field: IC50. Provide a value for each of the molecules that follow.
Test system: non-small cell lung cancer cell line NCI-H460
Test protocol: Tumor cell proliferation inhibitory activity test in vitro (MTT)
Format: cell-based, human
Assay setup: 72 hours, read-out: IC50 of compounds for tumor cells, Activity, H460

Input: Give non-small cell lung cancer cell line NCI-H460 IC50 for COc1ccc(N(C)c2cc(=O)oc3ccccc23)cc1OC(=O)CCCl
Output: 100 to 5000 nM

Input: Same lookup for COc1ccc(N(C)c2cc(=O)oc3ccccc23)cc1OCCN1CCOCC1 , please.
Output: 100 to 5000 nM

Input: # repeat for COc1ccc(N(C)c2cc(=O)oc3ccccc23)cc1OCCN1CCSCC1
Output: 10 to 100 nM

Input: Repeat with CCOc1cc(N(C)c2cc(=O)oc3ccccc23)ccc1OC
Output: > 5000 nM

Input: What would you report for COc1ccc(N(C)c2cc(=O)oc3ccccc23)cc1OS(=O)(=O)Cc1ccc(C)cc1 ?
Output: 100 to 5000 nM

Input: Now consider COc1ccc(N(C)c2cc(=O)oc3ccccc23)cc1OCCN1CCCCC1 and answer again.
Output: > 5000 nM

###

System: doxorubicin-resistant breast cancer cell MCF-7/ADR
Test protocol: Tumor cell proliferation inhibitory activity test in vitro (MTT)
Format: cell-based
Assay setup: Homo sapiens, NCI/ADR-RES, drug-resistant cells, 72 hours, read-out: IC50/nM MCF-7/ADR
Assay readout: IC50 (nM)
Answer format: numeric, nM implied, no suffix.

Input: Please state recorded IC50 (tested on doxorubicin-resistant breast cancer cell MCF-7/ADR) of COc1ccc(N(C)c2nc(C)nc3ccccc23)cc1
Output: 0.699
